Origin of values: paper PMC9927415

target: RIPK2 (Homo sapiens)
Construct: purchased DiscoverX (KINOMEscan)
Sequence (O43353 whole entry): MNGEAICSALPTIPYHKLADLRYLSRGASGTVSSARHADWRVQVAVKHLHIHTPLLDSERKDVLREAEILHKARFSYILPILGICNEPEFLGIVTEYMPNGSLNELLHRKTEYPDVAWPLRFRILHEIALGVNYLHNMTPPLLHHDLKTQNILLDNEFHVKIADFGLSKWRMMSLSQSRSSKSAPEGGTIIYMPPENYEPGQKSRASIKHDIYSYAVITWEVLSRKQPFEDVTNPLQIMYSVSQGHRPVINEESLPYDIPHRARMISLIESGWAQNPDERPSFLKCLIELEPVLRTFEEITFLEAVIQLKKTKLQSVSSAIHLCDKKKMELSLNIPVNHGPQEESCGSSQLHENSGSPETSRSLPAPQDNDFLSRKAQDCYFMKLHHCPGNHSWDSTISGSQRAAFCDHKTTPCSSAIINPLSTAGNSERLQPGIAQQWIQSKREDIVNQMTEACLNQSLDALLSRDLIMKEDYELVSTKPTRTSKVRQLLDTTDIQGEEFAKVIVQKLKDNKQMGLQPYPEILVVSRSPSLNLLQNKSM
protocolDescription: KINOMEscan competitive binding
testConditions: n=1, read-out: Percent inhibition, RIPK2
Answer each item with its documented inhibition at 10 µM.
Output spec: scalar in %, unitless text.

Which measured inhibition at 10 µM value corresponds to c1ccc(COc2cccc(-c3ccnc4[nH]ccc34)c2)cc1 [Compound 9] ?
0

Value lookup for inhibition at 10 µM; key = Nc1ncc2c(-c3ccncc3)c[nH]c2n1 [Compound 11]
0

Sample Cc1ccc(O)cc1Nc1ccnc(Nc2cccc(C(N)=O)c2)n1 [Compound 3] — what was its inhibition at 10 µM?
100

Sample Cc1ccc(O)cc1N(C)c1ccnc(Nc2cccc(S(N)(=O)=O)c2)n1 [Compound 4] — what was its inhibition at 10 µM?
100

# get_value(readout='inhibition at 10 µM', item= Clc1ccc(Nc2ncc(-c3ccccc3)s2)cc1 [Compound 10] )
0

Reported inhibition at 10 µM, compound C[C@@H](Oc1cc(-c2cnc3ccccn23)sc1C(N)=O)c1ccccc1Cl [Compound 8] : ____
0

Any idea what its inhibition at 10 µM is? The compound is Fc1cccc(COc2ccc(Nc3ncnc4c3CN(CCN3CCOCC3)CC4)cc2Cl)c1 [Compound 6]
0

Given the compound COc1cc(Nc2nccc(-c3sc(N)nc3-c3cccc(NC(=O)c4c(F)cccc4F)c3)n2)cc(OC)c1OC [Compound 7] , what is its reported inhibition at 10 µM?
100

Which inhibition at 10 µM value is on record for CN1CCN(c2ccc(Nc3nccc(-c4cnn5ncccc45)n3)cc2C#N)CC1 [Compound 1] ?
90.6

Quick check: inhibition at 10 µM of COc1ccc(Nc2nccc(-c3cnn4ncccc34)n2)cc1 [Compound 2] ?
0

---

Provide the recorded inhibition at 10 µM for the entries that follow.
target: EGFR (Homo sapiens, UniProt P00533)
Construct: purchased DiscoverX (KINOMEscan)
Sequence (P00533 25-1210): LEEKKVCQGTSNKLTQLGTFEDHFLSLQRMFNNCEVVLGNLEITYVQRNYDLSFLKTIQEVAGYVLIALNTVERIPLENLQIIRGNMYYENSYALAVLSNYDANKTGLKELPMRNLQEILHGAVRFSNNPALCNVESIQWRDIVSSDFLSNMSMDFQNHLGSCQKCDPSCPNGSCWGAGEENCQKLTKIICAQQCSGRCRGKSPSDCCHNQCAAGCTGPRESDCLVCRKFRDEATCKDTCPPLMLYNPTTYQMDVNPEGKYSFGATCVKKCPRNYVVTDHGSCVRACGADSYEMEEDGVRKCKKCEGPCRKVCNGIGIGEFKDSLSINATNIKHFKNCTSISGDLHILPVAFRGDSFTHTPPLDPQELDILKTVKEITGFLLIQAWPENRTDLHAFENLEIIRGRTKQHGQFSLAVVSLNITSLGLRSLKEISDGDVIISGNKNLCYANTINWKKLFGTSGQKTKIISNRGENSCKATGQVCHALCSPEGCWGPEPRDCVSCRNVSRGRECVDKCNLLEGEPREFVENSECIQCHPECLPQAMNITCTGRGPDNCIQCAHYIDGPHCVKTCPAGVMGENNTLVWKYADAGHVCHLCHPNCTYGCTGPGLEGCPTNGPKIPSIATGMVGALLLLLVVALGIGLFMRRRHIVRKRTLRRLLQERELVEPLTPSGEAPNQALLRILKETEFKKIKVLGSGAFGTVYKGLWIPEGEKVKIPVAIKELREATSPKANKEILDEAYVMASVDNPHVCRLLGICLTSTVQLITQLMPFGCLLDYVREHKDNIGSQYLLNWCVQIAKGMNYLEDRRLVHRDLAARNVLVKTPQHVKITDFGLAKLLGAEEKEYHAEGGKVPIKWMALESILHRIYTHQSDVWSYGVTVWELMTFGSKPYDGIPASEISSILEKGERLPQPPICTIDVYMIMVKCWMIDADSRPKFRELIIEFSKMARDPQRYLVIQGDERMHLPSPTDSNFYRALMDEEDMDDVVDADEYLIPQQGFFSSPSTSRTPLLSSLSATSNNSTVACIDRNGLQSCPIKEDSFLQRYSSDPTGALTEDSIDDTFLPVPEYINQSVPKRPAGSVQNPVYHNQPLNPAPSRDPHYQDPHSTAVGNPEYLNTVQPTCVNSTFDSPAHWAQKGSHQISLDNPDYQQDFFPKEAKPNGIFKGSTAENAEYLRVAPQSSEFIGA
protocolDescription: KINOMEscan competitive binding
testConditions: 10 µM, n=1; kinase EGFR; read-out: Percent inhibition EGFR
Description: The kinases were expressed as fusions to T7 bacteriophage. This is a sensitive, competitive binding assay where test compounds were used to displace immobilized ATP-site binding probe ligands from kinases of interest. The amount of kinase that remained bound to the immobilized probe ligands on the solid support was quantified. Percentage inhibition data were was plotted on kinome trees using the web-based tool KinMap (http://www.kinhub.org/kinmap) ([60]).
Dear colleague, please send the value followed by its unit.

Need inhibition at 10 µM, item Clc1ccc(Nc2ncc(-c3ccccc3)s2)cc1 [Compound 10]
0%

Requested field: inhibition at 10 µM. Item: Cc1ccc(O)cc1N(C)c1ccnc(Nc2cccc(S(N)(=O)=O)c2)n1 [Compound 4]
95.8%

What measured inhibition at 10 µM goes with Cc1ccc(O)cc1Nc1ccnc(Nc2cccc(C(N)=O)c2)n1 [Compound 3] ?
99%

Give the measured inhibition at 10 µM of Fc1cccc(COc2ccc(Nc3ncnc4c3CN(CCN3CCOCC3)CC4)cc2Cl)c1 [Compound 6] .
99.9%

Fill in: inhibition at 10 µM of Nc1ncc2c(-c3ccncc3)c[nH]c2n1 [Compound 11] is ___
0%

---

target: BIKE (Homo sapiens)
Construct: purchased DiscoverX (KINOMEscan)
Sequence (Q9NSY1 whole entry): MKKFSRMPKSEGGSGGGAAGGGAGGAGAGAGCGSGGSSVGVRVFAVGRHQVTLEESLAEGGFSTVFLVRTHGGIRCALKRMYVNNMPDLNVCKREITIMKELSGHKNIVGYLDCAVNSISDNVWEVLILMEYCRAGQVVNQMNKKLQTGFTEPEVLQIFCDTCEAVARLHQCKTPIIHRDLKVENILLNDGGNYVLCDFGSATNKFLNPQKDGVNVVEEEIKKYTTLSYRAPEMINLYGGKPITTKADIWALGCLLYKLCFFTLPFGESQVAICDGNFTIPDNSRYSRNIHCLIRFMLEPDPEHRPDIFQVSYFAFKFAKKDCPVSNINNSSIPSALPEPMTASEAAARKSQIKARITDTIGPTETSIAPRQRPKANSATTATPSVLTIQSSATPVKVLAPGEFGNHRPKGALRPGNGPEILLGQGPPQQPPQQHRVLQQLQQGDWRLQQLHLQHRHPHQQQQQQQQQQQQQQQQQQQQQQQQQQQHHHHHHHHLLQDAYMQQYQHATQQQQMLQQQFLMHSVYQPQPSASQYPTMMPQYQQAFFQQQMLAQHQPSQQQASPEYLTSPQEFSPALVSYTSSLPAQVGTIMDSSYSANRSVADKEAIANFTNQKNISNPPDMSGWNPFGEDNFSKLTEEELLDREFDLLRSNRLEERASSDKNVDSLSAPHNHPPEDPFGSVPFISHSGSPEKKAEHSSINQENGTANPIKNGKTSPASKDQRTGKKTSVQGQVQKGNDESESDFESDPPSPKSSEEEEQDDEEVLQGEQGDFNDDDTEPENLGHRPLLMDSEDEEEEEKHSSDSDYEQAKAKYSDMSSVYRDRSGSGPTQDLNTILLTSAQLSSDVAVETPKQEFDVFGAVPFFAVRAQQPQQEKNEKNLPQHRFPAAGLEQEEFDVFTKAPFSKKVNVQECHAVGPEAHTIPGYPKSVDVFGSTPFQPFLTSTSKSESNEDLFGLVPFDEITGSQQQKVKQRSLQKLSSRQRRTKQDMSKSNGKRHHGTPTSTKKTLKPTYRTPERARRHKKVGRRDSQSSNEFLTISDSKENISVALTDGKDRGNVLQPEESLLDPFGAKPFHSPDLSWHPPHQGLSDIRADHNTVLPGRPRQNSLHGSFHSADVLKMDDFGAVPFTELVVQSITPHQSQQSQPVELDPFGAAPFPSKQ
protocolDescription: KINOMEscan competitive binding
testConditions: 10 µM, n=1; kinase BIKE; read-out: Percent inhibition BIKE
Threshold check on inhibition at 10 µM: at or above 90% gives 1, strictly below gives -1.

// inclusive: inhibition at 10 µM at least 90%? input: Nc1ncc2c(-c3ccncc3)c[nH]c2n1
-1

Is it the case that Cc1ccc(O)cc1N(C)c1ccnc(Nc2cccc(S(N)(=O)=O)c2)n1 has inhibition at 10 µM reaching or exceeding 90%?
-1

Could you tell me if the measured inhibition at 10 µM of c1ccc(COc2cccc(-c3ccnc4[nH]ccc34)c2)cc1 reaches 90% or more?
1

Given the entry COc1cc(Nc2nccc(-c3sc(N)nc3-c3cccc(NC(=O)c4c(F)cccc4F)c3)n2)cc(OC)c1OC , answer whether its inhibition at 10 µM meets or surpasses 90%.
-1

State whether the measured inhibition at 10 µM reaches 90%, counting equality as reaching it, for Fc1cccc(COc2ccc(Nc3ncnc4c3CN(CCN3CCOCC3)CC4)cc2Cl)c1
-1

# bool: inhibition at 10 µM of COc1ccc(Nc2nccc(-c3cnn4ncccc34)n2)cc1 >= 90%
1

inhibition at 10 µM >= 90% for Cc1ccc(O)cc1Nc1ccnc(Nc2cccc(C(N)=O)c2)n1 ?
-1

Assess whether reported inhibition at 10 µM for CN1CCN(c2ccc(Nc3nccc(-c4cnn5ncccc45)n3)cc2C#N)CC1 sits at 90% or higher.
1

Evaluate C[C@@H](Oc1cc(-c2cnc3ccccn23)sc1C(N)=O)c1ccccc1Cl : inhibition at 10 µM at minimum 90%?
1

Reported inhibition at 10 µM reaches at least 90% for Clc1ccc(Nc2ncc(-c3ccccc3)s2)cc1 ?
-1

---

Please respond with reported inhibition at 10 µM for every item in the list.
target: PAK6 (Homo sapiens)
Construct: purchased DiscoverX (KINOMEscan)
Sequence (Q9NQU5 whole entry): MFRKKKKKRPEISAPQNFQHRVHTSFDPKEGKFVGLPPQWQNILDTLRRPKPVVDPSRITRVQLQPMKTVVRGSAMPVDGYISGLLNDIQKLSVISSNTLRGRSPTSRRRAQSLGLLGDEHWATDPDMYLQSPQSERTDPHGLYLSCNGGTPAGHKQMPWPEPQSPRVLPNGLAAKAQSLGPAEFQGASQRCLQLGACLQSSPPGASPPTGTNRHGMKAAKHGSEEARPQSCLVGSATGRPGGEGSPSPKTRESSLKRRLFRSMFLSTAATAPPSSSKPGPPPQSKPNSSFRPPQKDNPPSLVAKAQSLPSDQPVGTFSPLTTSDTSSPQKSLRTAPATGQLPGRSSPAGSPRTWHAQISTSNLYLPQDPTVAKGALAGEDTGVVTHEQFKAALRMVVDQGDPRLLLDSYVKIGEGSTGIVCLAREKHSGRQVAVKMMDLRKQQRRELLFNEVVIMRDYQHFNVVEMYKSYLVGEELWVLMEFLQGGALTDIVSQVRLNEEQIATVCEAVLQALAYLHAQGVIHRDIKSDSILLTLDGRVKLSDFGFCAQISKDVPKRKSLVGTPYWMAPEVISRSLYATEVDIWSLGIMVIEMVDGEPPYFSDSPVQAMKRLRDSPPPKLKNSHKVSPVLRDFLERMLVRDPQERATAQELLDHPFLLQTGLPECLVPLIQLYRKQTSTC
protocolDescription: KINOMEscan competitive binding
testConditions: n=1, read-out: Percent inhibition, PAK6
Express it in %; write the number only.

inhibition at 10 µM for Cc1ccc(O)cc1N(C)c1ccnc(Nc2cccc(S(N)(=O)=O)c2)n1 ?
94.3

Item C[C@@H](Oc1cc(-c2cnc3ccccn23)sc1C(N)=O)c1ccccc1Cl has what recorded inhibition at 10 µM?
0

Fill in the blank: the reported inhibition at 10 µM of CN1CCN(c2ccc(Nc3nccc(-c4cnn5ncccc45)n3)cc2C#N)CC1 is ____.
92.5

What inhibition at 10 µM value was documented for this compound, c1ccc(COc2cccc(-c3ccnc4[nH]ccc34)c2)cc1 ?
0

I have this compound here, COc1ccc(Nc2nccc(-c3cnn4ncccc34)n2)cc1 , and I need its recorded inhibition at 10 µM.
82

---

target: panel of 203 kinases (Homo sapiens, UniProt Q8IWQ3)
Construct: purchased DiscoverX (KINOMEscan)
Sequence (Q8IWQ3 whole entry): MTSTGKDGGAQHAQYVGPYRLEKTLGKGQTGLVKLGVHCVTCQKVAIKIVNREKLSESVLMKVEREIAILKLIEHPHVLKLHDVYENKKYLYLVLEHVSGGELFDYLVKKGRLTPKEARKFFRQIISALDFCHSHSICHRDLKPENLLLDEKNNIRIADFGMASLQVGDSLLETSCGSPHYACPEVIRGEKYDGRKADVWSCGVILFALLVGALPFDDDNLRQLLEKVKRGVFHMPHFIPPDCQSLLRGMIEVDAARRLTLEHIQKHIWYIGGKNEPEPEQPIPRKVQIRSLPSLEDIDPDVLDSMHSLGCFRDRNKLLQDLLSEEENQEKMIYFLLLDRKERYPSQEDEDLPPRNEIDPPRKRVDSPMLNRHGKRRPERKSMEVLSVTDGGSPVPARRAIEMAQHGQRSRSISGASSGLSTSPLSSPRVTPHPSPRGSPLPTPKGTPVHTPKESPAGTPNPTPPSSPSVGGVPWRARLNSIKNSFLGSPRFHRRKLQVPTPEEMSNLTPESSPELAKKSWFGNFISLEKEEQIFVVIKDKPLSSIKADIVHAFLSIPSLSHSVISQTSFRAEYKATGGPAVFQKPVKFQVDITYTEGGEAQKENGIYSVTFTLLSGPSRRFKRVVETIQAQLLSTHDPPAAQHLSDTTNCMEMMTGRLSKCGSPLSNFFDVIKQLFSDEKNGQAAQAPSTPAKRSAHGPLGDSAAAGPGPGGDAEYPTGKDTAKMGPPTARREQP
protocolDescription: KINOMEscan competitive binding, whole panel
testConditions: 10 µM, n=1; kinase BRSK2; read-out: Percent inhibition BRSK2
assayMetric: inhibition at 10 µM (%)
Give the value, in units of %, as a plain number.

I would be grateful if you could share the reported inhibition at 10 µM for COc1cc(Nc2nccc(-c3sc(N)nc3-c3cccc(NC(=O)c4c(F)cccc4F)c3)n2)cc(OC)c1OC .
0

Report inhibition at 10 µM for CN1CCN(c2ccc(Nc3nccc(-c4cnn5ncccc45)n3)cc2C#N)CC1 please.
0

# get_value(readout='inhibition at 10 µM', item= C[C@@H](Oc1cc(-c2cnc3ccccn23)sc1C(N)=O)c1ccccc1Cl )
91.2

Could you tell me which inhibition at 10 µM is on file for Nc1ncc2c(-c3ccncc3)c[nH]c2n1 ?
0

Item under review: c1ccc(COc2cccc(-c3ccnc4[nH]ccc34)c2)cc1 . Reported inhibition at 10 µM?
0

---

target: PKN2 (Homo sapiens, UniProt Q16513)
Construct: purchased DiscoverX (KINOMEscan)
protocolDescription: KINOMEscan competitive binding
testConditions: n=1, read-out: Percent inhibition, PKN2
assayMetric: inhibition at 10 µM (%)
Give the number; % is assumed, so skip it.

Look up inhibition at 10 µM with PKN2 (Homo sapiens, UniProt Q16513) for this molecule: Fc1cccc(COc2ccc(Nc3ncnc4c3CN(CCN3CCOCC3)CC4)cc2Cl)c1 [Compound 6]
71.4

Which measured inhibition at 10 µM belongs to COc1ccc(Nc2nccc(-c3cnn4ncccc34)n2)cc1 [Compound 2] , tested on PKN2 (Homo sapiens, UniProt Q16513)?
0

Look up inhibition at 10 µM with PKN2 (Homo sapiens, UniProt Q16513) for this molecule: c1ccc(COc2cccc(-c3ccnc4[nH]ccc34)c2)cc1 [Compound 9]
0

Form field - read-out: inhibition at 10 µM; system: PKN2 (Homo sapiens, UniProt Q16513); submitted item: Nc1ncc2c(-c3ccncc3)c[nH]c2n1 [Compound 11]
0

# get_value(readout= inhibition at 10 µM, system= PKN2 (Homo sapiens, UniProt Q16513)) for CN1CCN(c2ccc(Nc3nccc(-c4cnn5ncccc45)n3)cc2C#N)CC1 [Compound 1]
67.8

---

target: panel of 203 kinases (Homo sapiens, UniProt Q9UEE5)
Construct: purchased DiscoverX (KINOMEscan)
Sequence (Q9UEE5 whole entry): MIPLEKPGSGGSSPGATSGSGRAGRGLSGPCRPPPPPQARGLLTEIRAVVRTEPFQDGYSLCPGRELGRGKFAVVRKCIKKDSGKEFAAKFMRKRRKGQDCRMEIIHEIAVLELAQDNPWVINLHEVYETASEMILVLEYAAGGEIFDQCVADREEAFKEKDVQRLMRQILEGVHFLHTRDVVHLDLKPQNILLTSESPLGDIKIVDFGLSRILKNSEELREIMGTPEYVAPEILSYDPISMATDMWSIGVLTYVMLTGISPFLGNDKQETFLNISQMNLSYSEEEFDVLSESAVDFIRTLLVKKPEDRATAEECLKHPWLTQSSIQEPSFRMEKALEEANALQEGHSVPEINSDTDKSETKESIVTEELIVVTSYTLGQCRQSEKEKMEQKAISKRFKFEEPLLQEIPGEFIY
protocolDescription: KINOMEscan competitive binding, whole panel
testConditions: 10 µM, n=1; kinase DRAK1; read-out: Percent inhibition DRAK1
Can you tell me inhibition at 10 µM for the items I'm about to list?
Give your result in % as a bare value.

Recorded inhibition at 10 µM of CN1CCN(c2ccc(Nc3nccc(-c4cnn5ncccc45)n3)cc2C#N)CC1 [Compound 1] , please.
100

// returns reported inhibition at 10 µM for input c1ccc(COc2cccc(-c3ccnc4[nH]ccc34)c2)cc1 [Compound 9]
0

State the recorded inhibition at 10 µM for this entry: Cc1ccc(O)cc1Nc1ccnc(Nc2cccc(C(N)=O)c2)n1 [Compound 3]
0

Which inhibition at 10 µM is listed for COc1cc(Nc2nccc(-c3sc(N)nc3-c3cccc(NC(=O)c4c(F)cccc4F)c3)n2)cc(OC)c1OC [Compound 7] ?
0

Reported inhibition at 10 µM, molecule Fc1cccc(COc2ccc(Nc3ncnc4c3CN(CCN3CCOCC3)CC4)cc2Cl)c1 [Compound 6] : ____
0

Please look up its inhibition at 10 µM: Clc1ccc(Nc2ncc(-c3ccccc3)s2)cc1 [Compound 10]
0

Which measured inhibition at 10 µM value corresponds to Nc1ncc2c(-c3ccncc3)c[nH]c2n1 [Compound 11] ?
92.8

Need inhibition at 10 µM of C[C@@H](Oc1cc(-c2cnc3ccccn23)sc1C(N)=O)c1ccccc1Cl [Compound 8] , thanks.
86.1

Report inhibition at 10 µM for Cc1ccc(O)cc1N(C)c1ccnc(Nc2cccc(S(N)(=O)=O)c2)n1 [Compound 4] please.
0

Could you tell me which inhibition at 10 µM is on file for COc1ccc(Nc2nccc(-c3cnn4ncccc34)n2)cc1 [Compound 2] ?
98.4
